- target-entity: T1, Siglec15-ECD-His (human, UniProt Q6ZMC9 20-263)
- T1 construct: Human Siglec15 (Uniprot Q6ZMC9) extracellular domain with 7 His, expressed in Hek293F; also called Sigle15-ECD-His protein; Siglec15-His protein
- T1 sequence: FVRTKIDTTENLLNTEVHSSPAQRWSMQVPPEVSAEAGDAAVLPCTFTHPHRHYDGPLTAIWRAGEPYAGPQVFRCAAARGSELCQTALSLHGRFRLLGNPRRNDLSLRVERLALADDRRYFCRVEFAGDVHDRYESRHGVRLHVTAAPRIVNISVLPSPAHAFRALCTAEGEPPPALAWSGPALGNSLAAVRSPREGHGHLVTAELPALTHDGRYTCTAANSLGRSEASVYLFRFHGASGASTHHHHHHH
- protocol: BLI (ForteBio), Siglec15-ECD-His on HIS1K sensor, antibody as analyte
measurement-type: kon (M⁻¹ s⁻¹)
Could you give me the number in M⁻¹ s⁻¹? Just the number is fine.

Inquiry: # lookup: kon of 5G12-IgG1 control antibody (antibody, V domains shown) VH: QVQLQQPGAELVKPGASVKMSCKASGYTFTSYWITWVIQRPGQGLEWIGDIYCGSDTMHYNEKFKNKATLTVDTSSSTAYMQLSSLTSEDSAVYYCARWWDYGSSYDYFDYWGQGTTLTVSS VL: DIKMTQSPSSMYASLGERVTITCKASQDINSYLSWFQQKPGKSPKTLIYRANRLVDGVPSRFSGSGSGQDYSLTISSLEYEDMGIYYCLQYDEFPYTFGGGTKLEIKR
Reply text: 683000
